- assayed target: PPARγ-RXRα heterodimer (Homo sapiens)
- Sequence (P37231 1-477 isoform P37231-2): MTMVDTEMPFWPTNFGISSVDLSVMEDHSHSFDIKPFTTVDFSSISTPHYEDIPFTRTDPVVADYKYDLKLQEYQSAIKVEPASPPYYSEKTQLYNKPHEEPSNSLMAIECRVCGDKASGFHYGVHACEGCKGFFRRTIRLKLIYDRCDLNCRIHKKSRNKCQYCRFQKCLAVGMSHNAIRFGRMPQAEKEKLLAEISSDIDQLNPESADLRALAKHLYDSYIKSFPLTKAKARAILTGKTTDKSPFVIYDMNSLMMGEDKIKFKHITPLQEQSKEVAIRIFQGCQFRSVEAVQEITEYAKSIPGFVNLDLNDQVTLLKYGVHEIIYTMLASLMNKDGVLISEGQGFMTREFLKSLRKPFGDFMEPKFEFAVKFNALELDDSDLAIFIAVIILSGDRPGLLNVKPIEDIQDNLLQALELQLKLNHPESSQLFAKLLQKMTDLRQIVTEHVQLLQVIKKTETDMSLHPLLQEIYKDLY
- Sequence (P19793 1-462 partner): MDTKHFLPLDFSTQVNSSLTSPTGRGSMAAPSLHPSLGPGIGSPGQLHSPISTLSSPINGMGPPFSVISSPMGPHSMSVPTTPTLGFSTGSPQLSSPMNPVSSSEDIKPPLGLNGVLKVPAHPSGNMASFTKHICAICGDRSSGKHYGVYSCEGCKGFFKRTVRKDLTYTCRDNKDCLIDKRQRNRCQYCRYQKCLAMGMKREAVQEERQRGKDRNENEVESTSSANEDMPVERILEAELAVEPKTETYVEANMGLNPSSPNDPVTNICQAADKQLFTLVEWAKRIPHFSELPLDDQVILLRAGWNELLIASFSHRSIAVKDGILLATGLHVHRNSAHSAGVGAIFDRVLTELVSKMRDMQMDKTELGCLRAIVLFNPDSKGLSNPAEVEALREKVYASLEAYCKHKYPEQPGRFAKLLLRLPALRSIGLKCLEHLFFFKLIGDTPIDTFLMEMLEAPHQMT
- assay name: PPARγ-RXRα heterodimer ligand activity (luciferase reporter, PPARγ:RXRα:4ERPP/CHO-K1 cells)
- assay context: concentration showing 50% of the maximum luciferase induction rate; CHO-K1 reporter cells, one day incubation
pEC50: −log10 of the molar value.
property label: pEC50

| compound | pEC50 |
| --- | --- |
| CCCCCS(=O)(=O)NC(=O)CCc1ccc(OCCOCCOC)cc1Oc1ncc(C(F)(F)F)cc1Cl [Example 257] | 8.68 |

(A) CCCCCS(=O)(=O)NC(=O)/C=C/c1ccc(OCCOC)cc1Oc1ncc(C(F)(F)F)cc1Cl [Example 12]
(B) CCCCCS(=O)(=O)NC(=O)/C=C/c1ccc(OCCC2OCCO2)cc1Oc1ncc(C(F)(F)F)cc1Cl [Example 196]
Exercise: Lab note: check whether A or B shows the higher recorded pEC50. When you have decided, please share the label of that item.
Solution: B

(P) CCCCCS(=O)(=O)NC(=O)C(Cc1ccc(OCCOC)cc1Oc1ncc(C(F)(F)F)cc1Cl)OC (stereo not drawn) [Example 210]
(Q) C/C(=C\c1ccc(OC(C)C)cc1Oc1ncc(C(F)(F)F)cc1Cl)C(=O)NS(=O)(=O)NC1CCC(C)CC1 (stereo not drawn) [Example 223]
Exercise: Lab note: check whether P or Q shows the higher recorded pEC50. When you have decided, please share the label of that item.
Solution: P
(P: 8.17, Q: 7.26)

(I) CCCCCS(=O)(=O)NC(=O)/C=C/c1ccc(OCCOC2CC2)cc1Oc1ncc(C(F)(F)F)cc1Cl [Example 424]
(II) CCCCCS(=O)(=O)NC(=O)/C=C/c1ccc(Oc2ncccn2)cc1Oc1ncc(C(F)(F)F)cc1Cl [Example 197]
Exercise: Pick one: I or II . Which one has the lower reported pEC50? When you have decided, please share the label of that item.
Solution: II
(II: 7.55, I: 8.21)

(a) CCCCCS(=O)(=O)NC(=O)OCCCc1ccc(OCCOC)cc1Oc1ncc(C(F)(F)F)cc1Cl [Example 28]
(b) CCCCCNS(=O)(=O)NC(=O)CCc1ccc(OCCOC)cc1Oc1ncc(C(F)(F)F)cc1Cl [Example 214]
Exercise: Lab note: check whether a or b shows the higher recorded pEC50. When you have decided, please share the label of that item.
Solution: b

(I) CCCCCS(=O)(=O)NC(=O)/C=C/c1ccc(OCCCOC)cc1Oc1ncc(C(F)(F)F)cc1Cl [Example 251]
(II) CCCCCS(=O)(=O)NC(=O)/C=C/c1ccc(OCCCC#N)cc1Oc1ncc(C(F)(F)F)cc1Cl [Example 451]
(III) CCCCCS(=O)(=O)NC(=O)C(C)Cc1ccc(OCCOC)cc1Oc1ncc(C(F)(F)F)cc1Cl (stereo not drawn) [Example 209]
(IV) COCCOc1ccc(CCCOC(=O)NS(=O)(=O)NCCc2cccs2)c(Oc2ncc(C(F)(F)F)cc2Cl)c1 [Example 207]
Exercise: Order the entries by their reported pEC50, beginning at the minimum. Order the labels as requested and list them.
Solution: II, I, III, IV
(II: 7.82, I: 8.13, III: 8.64, IV: 9.00)

(1) COCCOc1ccc(CCCOC(=O)NS(=O)(=O)c2ccc(Cl)cc2)c(Oc2ncc(C(F)(F)F)cc2Cl)c1 [Example 32]
(2) CCCCCS(=O)(=O)NC(=O)/C(C)=C/c1ccc(OCCCOC)cc1Oc1ncc(Cl)cc1Cl [Example 190]
Exercise: Pick one: 1 or 2 . Which one has the lower reported pEC50? When you have decided, please share the label of that item.
Solution: 2

(I) CCCCCS(=O)(=O)NC(=O)/C=C/c1cc(OC(C)C)nn1Cc1ccc(C(F)(F)F)cc1Cl [Example 111]
(II) C/C(=C\c1ccc(OC(C)C)cc1Oc1ncc(C(F)(F)F)cc1Cl)C(=O)NS(=O)(=O)NCCc1cccs1 [Example 225]
Exercise: Lab note: check whether I or II shows the higher recorded pEC50. When you have decided, please share the label of that item.
Solution: I

(a) CCCCCS(=O)(=O)NC(=O)CCc1ccc(OCCOC)cc1OCc1nc(-c2ccccc2)oc1C [Example 173]
(b) CCCCCS(=O)(=O)NC(=O)CCc1cc(OC(C)C)nn1Cc1ccc(Cl)cc1Cl [Example 81]
(c) CCCCCS(=O)(=O)NC(=O)/C(C)=C/c1ccc(OCCOC)cc1Oc1ncc(C(F)(F)F)cc1Cl [Example 211]
(d) CCCCCS(=O)(=O)NC(=O)C(C)(C)Cc1ccc(OCCOC)cc1Oc1ncc(C(F)(F)F)cc1Cl [Example 252]
Exercise: Order the entries by their reported pEC50, beginning at the minimum. Order the labels as requested and list them.
Solution: b, a, c, d
